- targetOrTestSystem: recombinant COX-2 (Homo sapiens, UniProt P35354)
- Sequence (P35354 18-604): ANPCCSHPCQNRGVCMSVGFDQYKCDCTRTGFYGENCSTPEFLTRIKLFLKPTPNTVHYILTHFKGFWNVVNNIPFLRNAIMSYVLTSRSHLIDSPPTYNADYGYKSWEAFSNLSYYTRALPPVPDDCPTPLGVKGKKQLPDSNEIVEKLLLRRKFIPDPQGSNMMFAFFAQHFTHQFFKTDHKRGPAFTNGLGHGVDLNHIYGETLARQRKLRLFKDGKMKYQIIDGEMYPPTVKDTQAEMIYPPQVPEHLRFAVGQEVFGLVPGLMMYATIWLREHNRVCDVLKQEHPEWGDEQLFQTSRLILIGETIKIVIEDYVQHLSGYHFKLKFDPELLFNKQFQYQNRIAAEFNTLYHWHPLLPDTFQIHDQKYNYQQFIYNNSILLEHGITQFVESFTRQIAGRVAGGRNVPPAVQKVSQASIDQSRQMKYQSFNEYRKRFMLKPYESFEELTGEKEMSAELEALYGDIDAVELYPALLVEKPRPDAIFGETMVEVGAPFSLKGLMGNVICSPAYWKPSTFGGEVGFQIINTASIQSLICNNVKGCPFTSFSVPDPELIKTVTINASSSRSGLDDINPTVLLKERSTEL
- assayProtocol: Inhibition of recombinant COX-2 prostaglandin synthesis, ELISA for PGE2
- measurementSetup: read-out: IC50, prostaglandin level produced by recombinant COX-2
pIC50: −log10 of the molar value.

{"columns": ["compoundString", "pIC50"],
 "data": [
  ["CC(=O)C(=O)[C@@H](O)CO", 4.40]
]}
